- System: A549 NSCLC
- test.details: NCI tumour cell line growth inhibition, 48 h
readout.type: TGI

Worked cases, answers included:
[[record]]
molecule = "COc1cc(-c2nc3ccc(N4CCN(C)CC4)cc3[nH]2)c(OC)c2[nH]c(COC(C)=O)nc12"
readout_type = "TGI"
experimental_value = "> 100 µM"

[[record]]
molecule = "N/N=C1\\C(=O)N(Cc2ccccc2)C(=O)C1C(=O)NCc1ccccc1 (configuration not stated)"
readout_type = "TGI"
experimental_value = "> 100 µM"

[[record]]
molecule = "CN(CC(=O)O)c1ncc2c(n1)C=CCC2"
readout_type = "TGI"
experimental_value = "> 100 µM"


Each of the following entries comes with a recorded value; kindly state TGI for each.
1. CCCCN1CCCC[C@@H]1C(=O)N[C@H](C(=O)N(C)[C@H](C[C@@H](OC(C)=O)c1nc(C(=O)NC2CCC(C(=O)OC)CC2)cs1)C(C)C)C(C)C (some centres not stated)
2. Oc1ccc(Nc2ccc3ccccc3c2)cc1
3. Cc1nc(SCC(=O)Nc2ccc(Cl)cc2)c2sc(=S)n(-c3ccccc3)c2n1

1: > 25 µM; 2: 27 µM; 3: > 10 µM

====

- System: IGROV1 ovarian
- test.details: NCI tumour cell line growth inhibition, 48 h
Give TGI for every item shown.

[[record]]
molecule = "CC(CC(N)C(=O)O)C(=O)O (centres undefined)"
measured_on = "IGROV1 ovarian"
readout_type = "TGI"
experimental_value = "> 100 µM"

[[record]]
molecule = "O=C(CCl)NCCNc1nccc(Nc2ccc(S(=O)(=O)Nc3ccccn3)cc2)n1"
measured_on = "IGROV1 ovarian"
readout_type = "TGI"
experimental_value = "6.72 µM"

[[record]]
molecule = "CC(=O)Nc1ccc2nc(-c3ccccn3)c(-c3ccccn3)nc2c1"
measured_on = "IGROV1 ovarian"
readout_type = "TGI"
experimental_value = "> 100 µM"

[[record]]
molecule = "O=C(Nc1ccc(Cl)cc1C(F)(F)F)C(=O)C1CCCS1(=O)=O (centres undefined)"
measured_on = "IGROV1 ovarian"
readout_type = "TGI"
experimental_value = "> 10 µM"

[[record]]
molecule = "Cn1c(=O)c(Oc2ccc(F)cc2F)cc2cnc(NC(C)(C)CO)nc21"
measured_on = "IGROV1 ovarian"
readout_type = "TGI"
experimental_value = "> 25 µM"

[[record]]
molecule = "CCOP(=O)(OCC)/C(C#N)=C/c1cccn1C(C)C"
measured_on = "IGROV1 ovarian"
readout_type = "TGI"
experimental_value = "> 100 µM"

[[record]]
molecule = "C[C@]12CCC(=O)C(OC(=O)c3ccc([N+](=O)[O-])cc3)=C1CCC2=O"
measured_on = "IGROV1 ovarian"
readout_type = "TGI"
experimental_value = "> 100 µM"

[[record]]
molecule = "N#CCc1c(-c2ccccc2)n(S(=O)(=O)c2ccccc2)c2ccccc12"
measured_on = "IGROV1 ovarian"
readout_type = "TGI"
experimental_value = "> 100 µM"


API: the following record is the query input.
# lookup: TGI of OCC1COc2cc(Cl)c(Cl)cc2O1 (centres undefined)
> 10 µM

====

- Test system: SK-MEL-5 melanoma
- test.details: NCI tumour cell line growth inhibition, 48 h; in the data active = GI50 below about 0.43 µM; inactive = the rest
Just give me one of these, please: true for active, false for inactive

Recorded results for 4 compounds are shown here.
[[record]]
compound = "CCN(CC)CCCC(C)Nc1ccnc2cc(Cl)ccc12 (stereo not given)"
label_class = "false"

[[record]]
compound = "Oc1ccc(Nc2ccc3ccccc3c2)cc1"
label_class = "false"

[[record]]
compound = "Cc1ccc2oc(=O)cc(/C(=C3/C=CC=N3)c3ccc[nH]3)c2c1"
label_class = "true"

[[record]]
compound = "C=C(CN1CCN(c2ccc(C(F)(F)F)cc2)CC1)c1ccc(C(=O)Nc2ccccc2N)cc1"
label_class = "false"


Which result was noted for this compound in the test: "COc1cccc(/C=C/C(=O)c2ccc(SC)cc2)c1OC"
false
